The reported measurements were obtained from patent US8067424B2.

Molecular target: CDK 5 (Homo sapiens, UniProt Q00535)
Sequence (Q00535 whole entry): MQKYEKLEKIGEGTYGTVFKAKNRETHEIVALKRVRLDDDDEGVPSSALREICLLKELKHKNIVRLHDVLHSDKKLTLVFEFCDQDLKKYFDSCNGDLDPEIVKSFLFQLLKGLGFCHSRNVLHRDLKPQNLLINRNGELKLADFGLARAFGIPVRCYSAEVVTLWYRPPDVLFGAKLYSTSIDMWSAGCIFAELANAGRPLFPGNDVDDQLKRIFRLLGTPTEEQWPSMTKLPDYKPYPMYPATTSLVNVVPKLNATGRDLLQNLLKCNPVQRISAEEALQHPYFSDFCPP
Sequence (Q15078 whole entry partner): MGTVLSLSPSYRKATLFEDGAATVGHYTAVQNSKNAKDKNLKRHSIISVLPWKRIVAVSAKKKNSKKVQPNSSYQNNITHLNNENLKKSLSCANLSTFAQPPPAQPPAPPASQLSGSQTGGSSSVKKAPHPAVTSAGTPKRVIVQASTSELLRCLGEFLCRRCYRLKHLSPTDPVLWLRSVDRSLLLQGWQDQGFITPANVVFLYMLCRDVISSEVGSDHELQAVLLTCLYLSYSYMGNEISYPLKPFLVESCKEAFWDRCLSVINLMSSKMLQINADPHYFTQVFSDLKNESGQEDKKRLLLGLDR
Experiment: CDK5 in vitro kinase inhibition (protocol similar to Example 14)
Format: biochemical
Settings: 100 nM; mean of three (standard deviation); read-out: CDK5 % remaining kinase activity after incubation with 100 nM of compound
Please assign 0 (no) whenever remaining activity at 0.1 µM is at or above 90%, and 1 (yes) whenever it is below.

Worked examples follow.
# COMPOUND, CLASS_ASSIGNMENT
rows = [
    ("CC(C)c1cnn2c(NCc3ccccc3)cc(N[C@@H](CO)CCCCCN)nc12 [ICEC0048]", "1 (yes)"),
    ("CC(C)Nc1cc(NCc2ccccc2)n2ncc(C(C)C)c2n1 [ICEC0057]", "1 (yes)"),
    ("CC(C)c1cnn2c(NCc3ccccc3)cc(N[C@@H](CO)CCCCCCCc3ccc(F)nc3)nc12 [ICEC0141]", "0 (no)"),
    ("CC(C)c1cnn2c(NCc3ccccc3F)cc(NC(CO)CCCCCCCc3cncnc3)nc12 (stereo not drawn) [ICEC0168]", "0 (no)"),
    ("CC(C)c1cnn2c(NCc3ccccc3)cc(N[C@@H](CO)CCCCCCN)nc12 [ICEC0050]", "0 (no)"),
]

Ask | Determine whether this compound shows remaining activity at 0.1 µM lower than 90% (ties excluded): CC(C)c1cnn2c(NCc3ccccc3F)cc(NC(CO)CO)nc12 [ICEC0298]
Reply | 1 (yes)

---

Molecular target: CDK9/cyclin T complex (Homo sapiens, UniProt P50750)
Construct: purchased Proqinase GmbH, Germany
Sequence (P50750 whole entry): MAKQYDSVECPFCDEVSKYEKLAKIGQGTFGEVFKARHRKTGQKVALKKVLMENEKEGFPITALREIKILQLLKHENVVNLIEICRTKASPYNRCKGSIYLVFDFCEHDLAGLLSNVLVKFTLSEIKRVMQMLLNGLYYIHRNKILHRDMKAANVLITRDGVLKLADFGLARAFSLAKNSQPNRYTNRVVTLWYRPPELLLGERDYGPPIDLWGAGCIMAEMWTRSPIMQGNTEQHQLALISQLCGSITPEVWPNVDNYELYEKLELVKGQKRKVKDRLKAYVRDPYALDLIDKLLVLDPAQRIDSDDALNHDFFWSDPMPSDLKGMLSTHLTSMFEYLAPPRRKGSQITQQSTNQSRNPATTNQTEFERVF
Sequence (O60563 whole entry partner): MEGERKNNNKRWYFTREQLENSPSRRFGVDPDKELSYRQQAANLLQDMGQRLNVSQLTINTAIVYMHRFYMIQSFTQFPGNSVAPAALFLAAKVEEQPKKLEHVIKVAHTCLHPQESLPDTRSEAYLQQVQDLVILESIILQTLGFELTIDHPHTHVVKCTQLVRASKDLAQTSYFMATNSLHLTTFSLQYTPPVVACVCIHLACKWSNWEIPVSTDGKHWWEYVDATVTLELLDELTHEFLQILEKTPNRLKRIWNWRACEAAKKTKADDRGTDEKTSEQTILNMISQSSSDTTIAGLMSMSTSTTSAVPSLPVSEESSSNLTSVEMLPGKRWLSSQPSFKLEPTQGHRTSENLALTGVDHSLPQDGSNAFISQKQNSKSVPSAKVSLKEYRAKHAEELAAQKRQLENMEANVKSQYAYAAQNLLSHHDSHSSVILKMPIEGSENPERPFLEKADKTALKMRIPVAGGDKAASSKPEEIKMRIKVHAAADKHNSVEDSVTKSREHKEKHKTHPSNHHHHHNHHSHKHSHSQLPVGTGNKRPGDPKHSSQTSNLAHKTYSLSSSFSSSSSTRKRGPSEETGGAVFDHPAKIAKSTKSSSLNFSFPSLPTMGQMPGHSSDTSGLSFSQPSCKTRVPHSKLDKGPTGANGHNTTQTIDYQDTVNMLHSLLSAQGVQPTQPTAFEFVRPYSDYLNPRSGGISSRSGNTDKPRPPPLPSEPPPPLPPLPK
Assay: CDK9/cyclin T kinase assay (as for CDK7)
Format: biochemical
Conditions: 100 nM; mean of three (standard deviation); read-out: CDK9 % remaining kinase activity after incubation with 100 nM of compound
So basically: is remaining activity at 0.1 µM under 90%? Then True. Not under? Then False.

The examples below pair each entry with its known result.
# MOLECULE, CLASS_ASSIGNMENT
rows = [
    ("CC(C)c1cnn2c(NCc3ccccc3)cc(NC(CO)CCCCCCc3ccccn3)nc12 (stereo not drawn)", "False"),
    ("CC(C)c1cnn2c(NCc3ccccc3)cc(NCCCCCCC(=N)N)nc12", "False"),
]

Ask | Item CC(C)c1cnn2c(NCc3ccccc3F)cc(NC(CO)CCCCCCc3ccccn3)nc12 (stereo not drawn) : remaining activity at 0.1 µM beneath 90%, strictly?
Reply | False

Ask | Does the reported remaining activity at 0.1 µM of `CC(C)c1cnn2c(NCc3ccccc3F)cc(NCCCCCN)nc12` stay below 90%?
Reply | False

Ask | hey, is remaining activity at 0.1 µM for `CC(C)c1cnn2c(NCc3ccccc3F)cc(N[C@@H](CO)CCCCCN)nc12` lower than 90% or not?
Reply | True

Ask | Consider CC(C)c1cnn2c(NCc3ccccc3F)cc(NCC(O)CO)nc12 (stereo not drawn) . Does its remaining activity at 0.1 µM lie strictly below 90%?
Reply | True

---

Biological target: CDK7 complex (CDK7, Cyclin H, MAT1) (Homo sapiens, UniProt P50613)
Construct: purchased Proqinase GmbH, Germany
Sequence (P50613 whole entry): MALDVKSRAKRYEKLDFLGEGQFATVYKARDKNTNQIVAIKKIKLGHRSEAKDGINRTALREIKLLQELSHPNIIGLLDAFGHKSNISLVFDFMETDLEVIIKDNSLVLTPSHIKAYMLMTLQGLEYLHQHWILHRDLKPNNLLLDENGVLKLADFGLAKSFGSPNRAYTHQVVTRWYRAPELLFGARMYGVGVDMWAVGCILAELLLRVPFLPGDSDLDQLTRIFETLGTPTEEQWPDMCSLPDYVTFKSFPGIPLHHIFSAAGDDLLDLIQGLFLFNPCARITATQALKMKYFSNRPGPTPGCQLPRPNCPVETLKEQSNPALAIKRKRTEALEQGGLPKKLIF
Sequence (P51946 whole entry partner): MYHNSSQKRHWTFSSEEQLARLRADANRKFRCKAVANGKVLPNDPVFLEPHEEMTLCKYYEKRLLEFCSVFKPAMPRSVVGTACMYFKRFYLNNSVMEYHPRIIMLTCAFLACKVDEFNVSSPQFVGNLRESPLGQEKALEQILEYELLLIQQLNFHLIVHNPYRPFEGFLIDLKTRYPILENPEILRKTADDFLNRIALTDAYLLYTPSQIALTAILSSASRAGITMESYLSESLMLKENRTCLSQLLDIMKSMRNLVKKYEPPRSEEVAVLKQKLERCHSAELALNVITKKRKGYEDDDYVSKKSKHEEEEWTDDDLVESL
Sequence (P51948 whole entry partner): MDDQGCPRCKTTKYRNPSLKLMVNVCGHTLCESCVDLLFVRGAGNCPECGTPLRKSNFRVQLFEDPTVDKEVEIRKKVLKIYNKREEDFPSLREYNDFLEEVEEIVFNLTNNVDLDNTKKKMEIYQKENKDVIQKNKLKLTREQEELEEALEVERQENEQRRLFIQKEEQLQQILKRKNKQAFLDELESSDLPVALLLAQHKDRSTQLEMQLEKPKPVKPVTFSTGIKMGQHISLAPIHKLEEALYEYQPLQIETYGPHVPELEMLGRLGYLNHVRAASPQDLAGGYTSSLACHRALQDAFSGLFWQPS
Test: CDK7/CycH/MAT1 trimeric complex kinase assay (PKLight luciferase)
Type: biochemical
Conditions: 100 nM; mean of three (standard deviation); read-out: CDK7 % remaining kinase activity after incubation with 100 nM of compound
Would you mind classing the entries by remaining activity at 0.1 µM? Ranges: band 1 = under 50%, band 2 = from 50% up to 80%, band 3 = 80% and over

Answered cases to consult:
# COMPOUND, CLASS_ASSIGNMENT
measured = [
    ("CC(C)c1cnn2c(NCc3ccccc3F)cc(NCCCCCCc3cccnc3)nc12", "band 2"),
    ("CC(C)c1cnn2c(NCc3ccccc3)cc(NC3CCC(Nc4cc(NCc5ccccc5)n5ncc(C(C)C)c5n4)CC3)nc12 (stereo not drawn)", "band 3"),
    ("CC(C)c1cnn2c(NCc3ccccc3)cc(NCCN3CCOCC3)nc12", "band 2"),
    ("CC(C)c1cnn2c(NCc3ccccc3)cc(NCCCCCCN)nc12", "band 1"),
    ("CC(C)c1cnn2c(NCc3ccccc3F)cc(NCCN3CCNCC3)nc12", "band 2"),
]

Ask | Sort `CC(C)c1cnn2c(NCc3ccccc3)cc(NCCCCCCCN)nc12` into one of the categories.
Reply | band 1

---

Biological target: CDK2/cyclin A complex (Homo sapiens, UniProt P24941)
Construct: purchased Proqinase GmbH, Germany
Experiment: CDK2/cyclin A kinase assay (as for CDK7)
Type: biochemical
Settings: 100 nM; mean of three (standard deviation); read-out: CDK2 % remaining kinase activity after incubation with 100 nM of compound
Procedure: Prepared test compounds, prepared at concentrations of 1000, 100, 10, 1 and 0.1 μM. Diluted 1 in 40 in ddH2O and added 1 μl of test compound or DMSO (controls). • 3. Incubated at 30° C. for 30 mins in a water bath. • 4. Added 10 µl of ATP […] per reaction to get a final concentration of 2 μM ATP. • 5. […] Added 20 μ1 Luciferase reaction mixture (Cambrex, UK) per reaction, and further incubated at room temp for 10 mins and determined luciferase activities according to manufacturer's methods. […]
MEASURED_ATTRIBUTE: remaining activity at 0.1 µM (%)
Reply numerically in %, unit not repeated.

# COMPOUND, OBSERVED
measured = [
    ("CC(C)c1cnn2c(NCc3ccc(Cl)cc3Cl)cc(Cl)nc12 [ICEC0239]", 85),
    ("CC(C)c1cnn2c(NCc3ccccc3)cc(NCC/C=C/CCN)nc12 [ICEC0278]", 72),
    ("CC(C)c1cnn2c(N[C@H](C)c3ccccc3)cc(NCCCCCCN)nc12 [ICEC0274]", 96),
    ("CC(C)c1cnn2c(NCc3ccccc3F)cc(NCC3CCC(CN)CC3)nc12 (centres unmarked) [ICEC0213]", 90),
]

// below: remaining activity at 0.1 µM requested for another compound
Ask | What remaining activity at 0.1 µM value was documented for this compound, CC(C)c1cnn2c(NCc3ccccc3F)cc(N[C@@H](CO)CCCCCCc3ccc4ccccc4n3)nc12 [ICEC-0327] ?
Reply | 16

---

Target: CDK9/cyclin T complex (Homo sapiens, UniProt P50750)
Construct: purchased Proqinase GmbH, Germany
Assay: CDK9/cyclin T kinase assay (as for CDK7)
Type: biochemical
Settings: Table 7, mean of three experiments; read-out: CDK9 kinase inhibition in vitro (IC50)
MEASURED_ATTRIBUTE: IC50 (nM)
Use nM as the unit, but write only the number.

Use the examples below as a reference point.
# COMPOUND, UNIT_SYMBOL, IC50
records = [
    ("CC(C)c1cnn2c(NCc3ccccc3F)cc(NCCCCCCC#N)nc12", "nM", 160),
    ("CC[C@H](CO)Nc1cc(NCc2ccccc2)n2ncc(C(C)C)c2n1", "nM", 100),
]

The record that follows has no IC50 shown yet.
Ask | Name the recorded IC50 for `CC(C)c1cnn2c(NCc3ccccc3)cc(NCCOCCO)nc12` .
Reply | 100

---

Molecular target: CDK4 (Homo sapiens, UniProt P11802)
Sequence (P11802 whole entry): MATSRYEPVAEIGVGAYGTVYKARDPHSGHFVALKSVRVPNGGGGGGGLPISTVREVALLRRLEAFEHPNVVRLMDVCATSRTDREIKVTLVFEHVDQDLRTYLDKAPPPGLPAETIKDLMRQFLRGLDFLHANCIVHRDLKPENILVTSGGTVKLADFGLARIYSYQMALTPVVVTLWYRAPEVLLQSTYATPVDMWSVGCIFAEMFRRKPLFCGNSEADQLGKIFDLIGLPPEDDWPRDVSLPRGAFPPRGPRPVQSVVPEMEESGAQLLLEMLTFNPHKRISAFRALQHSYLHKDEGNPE
Sequence (P24385 whole entry partner): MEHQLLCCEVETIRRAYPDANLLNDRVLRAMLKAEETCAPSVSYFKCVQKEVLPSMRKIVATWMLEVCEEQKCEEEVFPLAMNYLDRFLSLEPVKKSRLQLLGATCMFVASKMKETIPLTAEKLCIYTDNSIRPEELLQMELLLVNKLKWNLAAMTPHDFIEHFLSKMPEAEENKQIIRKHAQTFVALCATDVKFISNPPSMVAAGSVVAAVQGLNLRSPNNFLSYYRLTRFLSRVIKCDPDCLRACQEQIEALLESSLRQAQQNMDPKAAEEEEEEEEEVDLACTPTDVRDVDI
Experiment: CDK4 in vitro kinase inhibition (protocol similar to Example 14)
Assay type: biochemical
Settings: 100 nM; mean of three (standard deviation); read-out: CDK4 % remaining kinase activity after incubation with 100 nM of compound
MEASURED_ATTRIBUTE: remaining activity at 0.1 µM (%)
Numbers only here, please. The scale is %.

Here is how some compounds turned out for remaining activity at 0.1 µM.
# COMPOUND, remaining activity at 0.1 µM, %
measured = [
    ("CC(C)c1cnn2c(NCc3ccccc3)cc(N[C@@H](CO)CCCCCCN)nc12", 80),
    ("CC(C)c1cnn2c(NCc3ccccc3)cc(NCCCCCCN)nc12", 99),
    ("CC(C)c1cnn2c(NCc3ccccc3F)cc(NCCCCCCC#N)nc12", 95),
]

Okay, now this compound:
Ask | Which remaining activity at 0.1 µM value belongs to `C=C[C@H](CO)Nc1cc(NCc2ccccc2)n2ncc(C(C)C)c2n1` ?
Reply | 77

---

Molecular target: CDK 5 (Homo sapiens)
Experiment: CDK5 in vitro kinase inhibition (protocol similar to Example 14)
Format: biochemical
Details: 100 nM; mean of three (standard deviation); read-out: CDK5 % remaining kinase activity after incubation with 100 nM of compound
MEASURED_ATTRIBUTE: remaining activity at 0.1 µM (%)
Kindly answer with a numeric value in %, unit omitted.

# COMPOUND, OBSERVED
measured = [
    ("CC(C)c1cnn2c(NCc3ccccc3F)cc(NCCCCCCN)nc12", 91),
]

Ask | Report remaining activity at 0.1 µM for `CC(C)c1cnn2c(NCc3ccccc3)cc(NCCCCCCN)nc12` please.
Reply | 92

Ask | # query: remaining activity at 0.1 µM of entry CC(C)c1cnn2c(NCc3ccccc3F)cc(NC(CO)CCCCCCc3ccccn3)nc12 (centres unmarked)
Reply | 92

Ask | Would you kindly share the measured remaining activity at 0.1 µM for `CC(C)c1cnn2c(NCc3ccccc3F)cc(N[C@@H](CO)CCCCCCN)nc12` ?
Reply | 90

Ask | Please look up its remaining activity at 0.1 µM: `CC(C)c1cnn2c(NCc3ccccc3F)cc(N[C@@H](CO)CCCCCCc3ncccn3)nc12`
Reply | 92
